Source of measurements: patent US12534457B2

Target: EGFR (d746-750/T790M/C797S) (Homo sapiens, UniProt P00533, C797S/DEL746-750/T790M)
Sequence (P00533 with tags, fused parts or gaps DEL746-750/T790M/C797S limits assumed): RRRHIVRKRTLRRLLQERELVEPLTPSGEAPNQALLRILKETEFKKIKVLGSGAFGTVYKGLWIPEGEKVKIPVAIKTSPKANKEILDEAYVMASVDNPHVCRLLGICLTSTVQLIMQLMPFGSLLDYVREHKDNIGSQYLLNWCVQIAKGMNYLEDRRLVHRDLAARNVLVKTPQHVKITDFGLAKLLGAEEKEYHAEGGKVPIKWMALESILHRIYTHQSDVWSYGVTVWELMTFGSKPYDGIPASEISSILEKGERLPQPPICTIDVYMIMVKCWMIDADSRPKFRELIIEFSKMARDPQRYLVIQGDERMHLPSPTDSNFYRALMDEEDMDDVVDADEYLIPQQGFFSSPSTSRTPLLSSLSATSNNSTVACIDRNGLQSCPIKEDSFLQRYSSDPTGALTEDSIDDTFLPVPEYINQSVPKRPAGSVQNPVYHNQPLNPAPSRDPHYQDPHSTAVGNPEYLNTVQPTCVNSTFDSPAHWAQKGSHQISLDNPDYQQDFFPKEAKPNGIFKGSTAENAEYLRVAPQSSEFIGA
Test: EGFR-family mutant enzyme activity (Reaction Biology)
pIC50: −log10 of the molar value.
Quantity Kind: pIC50

>>> recorded_number("COc1cc(N2CCC(N3CCN(C)CC3)CC2)ccc1Nc1cc(N2OCC[C@@H]2c2ccc(F)cc2F)ncn1")
7.22

* * *

System: Ba/F3 cells expressing EGFR Del19/C797S (EGFR DC)
Test: Proliferation inhibitory activity, Ba/F3 cells expressing EGFR Del19/C797S (CellTiter-Glo)
Format: cell-based
Details: Mus musculus, BaF3, 72 hours of compound treatment
Quantity Kind: GI50

>>> result("COc1cc(N2CCC(N3CCN(C)CC3)CC2)ccc1Nc1cc(N2OCC[C@@H]2c2cncc(F)c2)ncn1")
"50 to 500 nM"
>>> result("CN1CCC2(CC1)CCN(c1ccc(Nc3cc(N4OCC[C@@H]4c4ccccc4)ncn3)cc1)CC2")
"< 50 nM"
>>> result("Cc1cc(Nc2cc(N3OCC[C@@H]3c3ccccc3)ncn2)ccc1N1CCN(C)CC1")
"< 50 nM"
>>> result("COc1cc(C2CCN(C)CC2)ccc1Nc1cc(N2OCC[C@@H]2c2cccc(F)c2F)ncn1")
"< 50 nM"
